half-life values by entry
Assay: In vivo pharmacokinetic and oral bioavailability
Details: mouse, plasma, iv; i.v. 2.5 mg/kg, male Swiss mice; read-out: Half life (t1/2) (converted)
I only need the number, in h, no unit after it.

Answered cases to consult:
INSERT INTO results (smiles_code, reported_endpoint, result_units, number) VALUES
  ('Cc1ccc(F)cc1C1=CCN(C(=O)/C=C/c2cnc3c(c2)CCC(=O)N3)CCC1', 'half-life', 'h', 2),
  ('COc1ccccc1C1=CCCN(C(=O)/C=C/c2cnc3c(c2)CCC(=O)N3)CC1', 'half-life', 'h', 1.2);

Now look at this entry.
Req: What half-life value was documented for this compound, COc1ccc(F)cc1C1=CCCN(C(=O)/C=C/c2cnc3c(c2)CCC(=O)N3)CC1 ?
Resp: 1.1

---

Record: pIC50 reported on S. aureus ATCC 29213 FabI (Staphylococcus aureus, UniProt Q6GI75).
Sequence (Q6GI75 whole entry): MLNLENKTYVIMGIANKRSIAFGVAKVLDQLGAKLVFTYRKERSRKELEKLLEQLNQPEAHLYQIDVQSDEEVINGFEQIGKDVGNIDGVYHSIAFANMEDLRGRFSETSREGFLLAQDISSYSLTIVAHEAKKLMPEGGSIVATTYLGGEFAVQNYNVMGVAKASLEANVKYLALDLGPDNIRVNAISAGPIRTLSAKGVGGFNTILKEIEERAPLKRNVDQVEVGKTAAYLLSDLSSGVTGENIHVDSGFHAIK
Would you please state pIC50, meaning minus log10 of the concentration in mol/L, as a bare number?

Guide cases for pIC50, answers given:
INSERT INTO measurements (molecule, number) VALUES
  ('O=C1CCc2cc(/C=C/C(=O)N3CCC=C(c4ccccc4F)CC3)cnc2N1', 5.97),
  ('O=C1CCc2cc(/C=C/C(=O)N3CCCC(c4ccccc4)CC3)cnc2N1 (centres unmarked)', 6.18),
  ('O=C1CCc2cc(/C=C/C(=O)N3CC=C(c4cccc(Cl)c4)CCC3)cnc2N1', 5.90),
  ('O=C1CCc2cc(/C=C/C(=O)N3CC=C(c4ccccc4F)CCC3)cnc2N1', 6.18);

Could you now look at the following molecule, please?
Req: Sample O=C1CCc2cc(/C=C/C(=O)N3CC=C(c4ccccc4)CCC3)cnc2N1 — what was its pIC50?
Resp: 6.02

---

System: S. aureus
Test: Antibacterial susceptibility testing: IC90 determination with 10% human serum (STA + 10% HS)
Assay type: cell-based
Settings: Staphylococcus aureus; S. aureus with human serum at final concentration of 10%; read-out: STA + 10% HS (361.169) IC90
Parameter: IC90. Scope: all listed entries.
Answer in µg/mL, number only, no unit symbol.

INSERT INTO results (molecule, reported_endpoint, number) VALUES
  ('O=C1CCc2cc(/C=C/C(=O)N3CCC=C(c4ccccc4)CC3)cnc2N1 [Co. No. 2]', 'IC90', 0.33),
  ('Cc1ccc(F)cc1C1=CCN(C(=O)/C=C/c2cnc3c(c2)CCC(=O)N3)CCC1 [Co. No. 14]', 'IC90', 3.74),
  ('COc1ccccc1C1=CCCN(C(=O)/C=C/c2cnc3c(c2)CCC(=O)N3)CC1 [Co. No. 10]', 'IC90', 0.2),
  ('Cc1ccc(C)c(C2=CCCN(C(=O)/C=C/c3cnc4c(c3)CCC(=O)N4)CC2)c1 [Co. No. 17]', 'IC90', 0.72),
  ('O=C1CCc2cc(/C=C/C(=O)N3CCc4ccccc4CC3)cnc2N1 [Co. No. 32]', 'IC90', 20.2);

Read the next record carefully.
Req: Form entry - test system: S. aureus; read-out: IC90; molecule: CC1(c2ccccc2)CCCN(C(=O)/C=C/c2cnc3c(c2)CCC(=O)N3)CC1 (stereo not drawn) [Co. No. 28]
Resp: 7.42

---

Target: S. aureus ATCC 29213 FabI (Staphylococcus aureus, UniProt Q6GI75)
Each item that follows carries a reported pIC50.
Scale explanation: pIC50 corresponds to minus log10 of a concentration expressed in moles per litre.

INSERT INTO assay_data (compound, tested_target, number) VALUES
  ('COc1ccccc1C1=CCCN(C(=O)/C=C/c2cnc3c(c2)CCC(=O)N3)CC1 [Co. No. 10]', 'S. aureus ATCC 29213 FabI (Staphylococcus aureus, UniProt Q6GI75)', 6.06),
  ('COc1cccc(F)c1C1=CCCN(C(=O)/C=C/c2cnc3c(c2)CCC(=O)N3)CC1 [Co. No. 31]', 'S. aureus ATCC 29213 FabI (Staphylococcus aureus, UniProt Q6GI75)', 5.79),
  ('Cc1ccccc1C1=CCN(C(=O)/C=C/c2cnc3c(c2)CCC(=O)N3)CCC1 [Co. No. 7]', 'S. aureus ATCC 29213 FabI (Staphylococcus aureus, UniProt Q6GI75)', 5.94),
  ('O=C1CCc2cc(/C=C/C(=O)N3CCCN(c4ccccc4)CC3)cnc2N1 [Co. No. 11]', 'S. aureus ATCC 29213 FabI (Staphylococcus aureus, UniProt Q6GI75)', 5.98),
  ('O=C1CCc2cc(/C=C/C(=O)N3CCC=C(c4ccc(Cl)cc4)CC3)cnc2N1 [Co. No. 24]', 'S. aureus ATCC 29213 FabI (Staphylococcus aureus, UniProt Q6GI75)', 5.72);

Req: Entry COc1ccc(C2=CCCN(C(=O)/C=C/c3cnc4c(c3)CCC(=O)N4)CC2)cc1 [Co. No. 26] : reported pIC50 = ?
Resp: 5.78

Req: Entry to check: Cc1ccc(F)cc1C1=CCCN(C(=O)/C=C/c2cnc3c(c2)CCC(=O)N3)CC1 [Co. No. 15]
Resp: 6.10

Req: Can you check COc1cccc(C2=CCCN(C(=O)/C=C/c3cnc4c(c3)CCC(=O)N4)CC2)c1 [Co. No. 29] next?
Resp: 5.62

---

Test: Thermodynamic solubility / solubility in aqueous solution
Format: physicochemical
Conditions: aqueous buffer, thermodynamic from solid; Buffer pH 4; 4 days at ambient temperature; read-out: Solubility, Buffer pH 4
Experimental: The pH solubility profiling was carried out at ambient temperature for a period of 4 days. A saturation solubility study was carried out in order to determine maximum solubility in a particular buffer solution. The compound was added to respective buffer solution until saturation point is reached. This was followed by shaking the flask for 4 days at ambient temperature. After 4 days, the solutions were filtered and injected on UPLC and the concentration was determined using a generic HPLC method.
REPORTED ENDPOINT: solubility at 4 days

INSERT INTO results (compound, reported_endpoint, result) VALUES
  ('O=C1CCc2cc(/C=C/C(=O)N3CCC=C(c4ccccc4)CC3)cnc2N1 [Co. No. 2]', 'solubility at 4 days', '< 2 µg/mL');

Here is the next item to consider.
Req: Look at this compound and give its reported solubility at 4 days. COc1ccc(F)cc1C1=CCCN(C(=O)/C=C/c2cnc3c(c2)CCC(=O)N3)CC1 [Co. No. 27]
Resp: < 10 µg/mL

---

This section presents compounds with their documented CC50 at 72 h values.
Test: Cytotoxicity MTT assay (TOX HELAM)
Format: cell-based
Details: human, HelaM cells, read-out: TOX HELAM (222.125) CC50

INSERT INTO measurements (compound, result) VALUES
  ('COc1cccc(C2=CCCN(C(=O)/C=C/c3cnc4c(c3)CCC(=O)N4)CC2)c1 [Co. No. 29]', '> 10.6 µg/mL');

Req: // query CC50 at 72 h value for entry CC1(c2ccccc2)CCCN(C(=O)/C=C/c2cnc3c(c2)CCC(=O)N3)CC1 (stereo not drawn) [Co. No. 28]
Resp: > 9.78 µg/mL

Req: // repeat for O=C1CCc2cc(/C=C/C(=O)N3CCCC(c4ccccc4)CC3)cnc2N1 (stereo not drawn) [Co. No. 4] and report
Resp: > 9.43 µg/mL

Req: Ok, now COc1cccc(F)c1C1=CCCN(C(=O)/C=C/c2cnc3c(c2)CCC(=O)N3)CC1 [Co. No. 31]
Resp: > 10.6 µg/mL

Req: Input O=C1CCc2cc(/C=C/C(=O)N3CCC=C(c4ccccc4F)CC3)cnc2N1 [Co. No. 23]
Resp: > 9.83 µg/mL

Req: Request: Cc1ccc(C)c(C2=CCCN(C(=O)/C=C/c3cnc4c(c3)CCC(=O)N4)CC2)c1 [Co. No. 17]
Resp: 4.11 µg/mL
